// read-out IC50, gathered for human mPGES-1 (Homo sapiens, UniProt O14684) from published studies
PROPERTY: IC50 (nM)

SMILES NOTATION: CC(C)C#Cc1ccc(C(=O)NS(=O)(=O)c2ccccc2S(N)(=O)=O)cc1OCCC(F)(F)F
PROPERTY: IC50
VALUE UNIT: nM
ASSAY RESULT: 18

SMILES NOTATION: CCCC(C)(C)C(=O)N(C)Cc1ccc(Cl)c(-c2nc(O)nc(-c3ccccc3)n2)c1
PROPERTY: IC50
VALUE UNIT: nM
ASSAY RESULT: 108

[a] NS(=O)(=O)c1ccccc1NS(=O)(=O)c1cccc(-c2cccc(Cl)c2Cl)c1
[b] NS(=O)(=O)c1ccccc1S(=O)(=O)NC(=O)c1ccc(Cl)cc1F
[c] NS(=O)(=O)c1ccccc1S(=O)(=O)NC(=O)c1ccc(C#CC(C2CC2)C2CC2)c(OCCC(F)(F)F)c1
[d] CC(C)(C)C#Cc1ccc(C(=O)NS(=O)(=O)c2ccccc2S(N)(=O)=O)cc1F
List the 4 entries from lowest IC50 to highest IC50 value. Give the order by naming the labels one after another as requested. c, d, a, b

[P] NS(=O)(=O)c1ccccc1NS(=O)(=O)CCc1ccc(OC(F)(F)C(F)F)cc1
[Q] CC(C)Oc1ccc(-n2c(C(=O)O)c(N3CCOCC3)c3cc(-c4ccc(C(F)(F)F)cc4)ccc32)cc1
Of P and Q , whose reported IC50 is numerically smaller? Answer with the label corresponding to your selection. P
(P: 420 nM, Q: 730 nM)

* * *

// read-out IC50, gathered for human mPGES-1 (Homo sapiens) from published studies
PROPERTY: IC50 (µM)

Example entries begin here.
COMPOUND: COc1cc(Cl)ccc1CCS(=O)(=O)Nc1ccccc1S(N)(=O)=O
ASSAYED TARGET: human mPGES-1 (Homo sapiens)
Sequence (O14684 whole entry): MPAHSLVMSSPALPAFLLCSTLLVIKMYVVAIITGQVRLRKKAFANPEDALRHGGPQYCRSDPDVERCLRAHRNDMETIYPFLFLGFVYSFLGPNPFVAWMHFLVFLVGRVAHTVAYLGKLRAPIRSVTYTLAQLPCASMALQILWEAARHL
PROPERTY: IC50
ASSAY RESULT: 0.25

COMPOUND: CC(C)(C)COc1ccc(-c2nc(O)nc(-c3cc(CNC(=O)C(C)(C)C(F)(F)F)ccc3Cl)n2)cc1
ASSAYED TARGET: human mPGES-1 (Homo sapiens)
PROPERTY: IC50
ASSAY RESULT: 0.0058

COMPOUND: CC(C)(C)C#Cc1ccc(CCS(=O)(=O)Nc2ccc(CO)cc2S(N)(=O)=O)cc1
ASSAYED TARGET: human mPGES-1 (Homo sapiens)
PROPERTY: IC50
ASSAY RESULT: 0.075

[a] NS(=O)(=O)c1ccccc1S(=O)(=O)NC(=O)c1ccc(C#CC2CCCCC2)c(CO)c1
[b] Cc1cccc(C)c1-c1nc(O)nc(-c2ccc(O[C@@H](C)c3ccccc3)cc2)n1
Compare a and b by numeric IC50 and name the larger one. Answer with the label corresponding to your selection. b

[I] COc1ccc(F)c(Cl)c1-c1nc(O)nc(-c2ccc(OCc3ccccc3)cc2)n1
[II] Cc1cc(Cl)c(-c2nc(O)nc(-c3ccc(OCC4CC4)cc3)n2)cc1C(=O)O
Of I and II , whose reported IC50 is numerically smaller? Answer with the label corresponding to your selection. I
(I: 0.028 µM, II: 24.6 µM)

[P] COCc1nc2c(C(=O)Nc3c(F)cccc3F)cc(NC(=O)c3ccccc3C(F)(F)F)cc2[nH]1
[Q] COC(=O)NCc1ccc(Cl)c(-c2nc(O)nc(-c3ccc(C(F)(F)F)cc3)n2)c1
[R] NS(=O)(=O)c1ccccc1NS(=O)(=O)c1cccc(-c2cc(Cl)ccc2Cl)c1
[S] COc1ccc(CCOc2cc(Cl)ccc2CCS(=O)(=O)Nc2ccccc2S(N)(=O)=O)cc1
List the 4 entries from lowest IC50 to highest IC50 value. Give the order by naming the labels one after another as requested. Q, S, P, R
(Q: 0.0027 µM, S: 0.0264 µM, P: 0.195 µM, R: 4.5 µM)

[I] COc1ccc(Cl)c(-c2nc(O)nc(-c3ccc(C(F)(F)F)cc3)n2)c1
[II] Cn1c(-c2ccc(Cl)cc2)nc2cc(NC(=O)c3cc(CNC(=O)C(C)(C)C)ccc3Cl)ccc21
[III] NS(=O)(=O)c1ccccc1S(=O)(=O)NC(=O)c1ccc(-c2ccccc2)cc1
[IV] CCN(Cc1ccc(Cl)c(-c2nc(O)nc(-c3ccc(OCC(C)(C)C)cc3)n2)c1)C(=O)OC(C)(C)C
List the 4 entries from lowest IC50 to highest IC50 value. Give the order by naming the labels one after another as requested. II, IV, I, III
(II: 0.0298 µM, IV: 0.059 µM, I: 0.163 µM, III: 0.32 µM)
